Ref: PubChem BioAssay

Test: modulation of C. elegans fzo-1 (AID 1259413);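 further: fzo-1 mutant C. elegans worms in liquid wells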
Settings: C. elegans fzo-1 modulator screen, mean read-out; stronger effect = higher value
Measure name: mean signal
// no unit, no text: just the number

Exam item: Quickly give me recorded mean signal for C/C(=C\C(=O)OCCCCCCCCC(=O)O)C[C@@H]1OC[C@H](C[C@@H]2O[C@H]2[C@@H](C)[C@H](C)O)[C@@H](O)[C@H]1O
Marked response: 235

Exam item: Quickly give me recorded mean signal for CC12CCC(=O)C=C1CC[C@@H]1[C@@H]2[C@@H](O)CC2(C)[C@@H](C(=O)CO)CC[C@@H]12 (some centres not stated)
Marked response: 250

Exam item: Quickly give me recorded mean signal for CC(=O)OCC(=O)C12OC3(CCCC3)OC1CC1C3CCC4=CC(=O)C=CC4(C)C3(F)C(O)CC12C (configuration not stated)
Marked response: 242

Exam item: Quickly give me recorded mean signal for Cc1sc(N)c(C(=O)c2cccc(C(F)(F)F)c2)c1C
Marked response: 276

Exam item: Quickly give me recorded mean signal for COc1cc([C@@H]2c3cc4c(cc3[C@@H](O[C@@H]3O[C@@H]5CO[C@@H](C)O[C@H]5[C@H](O)[C@H]3O)[C@H]3COC(=O)[C@H]23)OCO4)cc(OC)c1O
Marked response: 267

Exam item: Quickly give me recorded mean signal for NC(Cc1cc(I)c(Oc2ccc(O)c(I)c2)c(I)c1)C(=O)O (configuration not stated)
Marked response: 230

Exam item: Quickly give me recorded mean signal for Cc1cc2c(s1)Nc1ccccc1N=C2N1CCN(C)CC1
Marked response: 245

---

Tested on: R275C/beta4
Assay: modulators of BK channel variants, profiling panel, selectivity assay, cell-based, U2OS BacMam, thallium flux, beta subunits (AID 1259406);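 further: initial slope of Thallos dye fluorescence rise after thallium is added; log ratio against the mean of 0.3% DMSO vehicle wells on the same plate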
Conditions: at 30 µM
Non-standard residues stand in square brackets, D forms with d. Residues, ends and D or L forms follow the SMILES beside them. pGlu = O=C1CC[C@@H](C(=O)O)N1; Thz = O=C(O)[C@@H]1CSCN1
Category key, based on recorded log fold change Tl+ flux: low band (below -0.002), middle band (-0.002 to below 0.02), high band (0.02 or more)

Exam item: Class? Entry: NC(C=Cc1cc(C(F)(F)F)cc(C(F)(F)F)c1)=NOC(=O)c1c(F)cccc1F
Marked response: high band

Exam item: Class? Entry: Cc1c(C(=O)CSc2n[nH]c(=O)n2C(C)c2ccccc2)sc2ccc(Cl)cc12 (stereo unspecified)
Marked response: high band

Exam item: Class? Entry: Cn1cnc2cccc(F)c2c1=N
Marked response: middle band

Exam item: Class? Entry: O=C1CC[C@@H](C(=O)N2CSC[C@H]2C(=O)O)N1 ([pGlu]-[Thz]-OH)
Marked response: middle band

Exam item: Class? Entry: CCCCC(=O)OC1(C(=O)CO)CCC2C3CCC4=CC(=O)CCC4(C)C3C(O)CC21C (stereo unspecified)
Marked response: high band

Exam item: Class? Entry: Cc1nc(C)c(C(=O)O)c(-c2ccsc2)c1C(=O)O
Marked response: middle band

Exam item: Class? Entry: CC1CC2C3CCC4=CC(=O)C=CC4(C)[C@@]3(Cl)C(O)CC2(C)C1(O)C(=O)CO (stereo partly specified)
Marked response: high band

Exam item: Class? Entry: Nc1ncnc2c1ncn2[C@@H]1O[C@H](CO)C[C@@H]1O
Marked response: low band

Exam item: Class? Entry: Cc1cc2nccc(-c3cccnc3)n2n1
Marked response: middle band

Exam item: Class? Entry: Cn1c(SCc2ccc(C(F)(F)F)cc2)nnc1C(F)(F)F
Marked response: low band

Exam item: Class? Entry: O=c1c(O[C@@H]2O[C@H](CO)[C@H](O)[C@H](O)[C@H]2O)c(-c2ccc(O)c(O)c2)oc2cc(O)cc(O)c12
Marked response: high band

Exam item: Class? Entry: CC(Cc1ccc(O)c(O)c1)(NN)C(=O)O (stereo unspecified)
Marked response: low band

Exam item: Class? Entry: COC(=O)c1c(S(=O)(=O)N2CCOCC2)c(C)n(C)c1C
Marked response: middle band

Exam item: Class? Entry: Cc1ccc(C(=O)Cn2cc([N+](=O)[O-])nc2C)cc1
Marked response: high band

Exam item: Class? Entry: CCC(C)n1ncn(-c2ccc(N3CCN(c4ccc(OCC5COC(Cn6cncn6)(c6ccc(Cl)cc6Cl)O5)cc4)CC3)cc2)c1=O (stereo unspecified)
Marked response: low band

Exam item: Class? Entry: Cc1c(Br)sc2sc(-c3ccnc(SCc4ccccc4)n3)c(C)c12
Marked response: low band
